- Target Desc: Cytochrome P450 2C9 (Homo sapiens)
- Procedure Details: Cytochrome panel assay with activity outcomes; note: % is set by controls: 0 for no effect and ±100 for the full control effect
- Condition Set: recombinant CYP, pro-luciferin dealkylation, luminescence, p450-cyp2c9; series mostly up to 57.1 µM
- Experimental: The P450 gene superfamily is involved in the metabolism and clearance of xenobiotics. This assay used various human CYP P450 isozymes to measure the dealkylation of various pro-luciferin substrates to luciferin. The luciferin is then measured by luminescence after the addition of a luciferase detection reagent. […] Inhibitors and some substrates limit the production of luciferin, and decrease measured luminescence. […] 8, Detection, 1 sec, ViewLux luminescent read […]
Among all 16,000 compounds or so, about 4,000 (25%) were called active. Inconclusive results (about 26%) are left out. The list is a sample of the results.
Measured Endpoint: activity, negative = inhibition

Please review the following examples before continuing.
[
  {
    "Chem Smiles": "N#Cc1ccc(CN2CC[C@@]3(CCCNC3)C2)cc1",
    "activity, negative = inhibition": "inactive"
  },
  {
    "Chem Smiles": "Clc1cc(I)cc(Cl)c1NC1=NCCN1",
    "activity, negative = inhibition": "inactive"
  },
  {
    "Chem Smiles": "O=c1[nH]c(=O)n(CCc2ccc(F)cc2)c(O)c1C=NCCCN1CCOCC1",
    "activity, negative = inhibition": "inactive"
  },
  {
    "Chem Smiles": "OCc1cnc[nH]1",
    "activity, negative = inhibition": "inactive"
  }
]

Query string: Name the recorded activity, negative = inhibition for Cc1cc[c]([Sb]2[O][C@H]([C@H](O)[C@H](O)C(=O)O)[C@@H](CO)[O]2)cc1 .
Result string: 14% [at 11.4 µM] (inactive)

Query string: Name the recorded activity, negative = inhibition for CCCN(CCC)[C@H]1CCc2c(F)ccc(O)c2C1 .
Result string: inactive
